Test system: human red blood cells
ASSAY EXPLANATION: Hemolytic assay
Type: cell-based
EXPERIMENTAL SETUP: mean (n = 2)
READOUT: Hemolysis (HC10), concentration of compound at 10% hemolytic activity (µM)

COMPOUND: COc1c(Br)cc(/C=C/C(=O)NCCCNCCCCCCCCNCCCNC(=O)/C=C/c2cc(Br)c(OC)c(Br)c2)cc1Br.O=C(O)C(F)(F)F.O=C(O)C(F)(F)F [Compound 16d]
ENDPOINT UNIT: µM
RESULT OPERATOR: ≤
READOUT NUMBER: 0.22
--
COMPOUND: COc1ccc(/C=C/C(=O)NCCCNCCCCCCCCCCCCNCCCNC(=O)/C=C/c2ccc(OC)c(Br)c2)cc1Br.O=C(O)C(F)(F)F.O=C(O)C(F)(F)F [Compound 15f]
ENDPOINT UNIT: µM
RESULT OPERATOR: =
READOUT NUMBER: 1.17
--
COMPOUND: O=C(C=Cc1ccccc1)NCCCNCCCCCCCNCCCNC(=O)C=Cc1ccccc1.O=C(O)C(F)(F)F.O=C(O)C(F)(F)F [Compound 13c]
ENDPOINT UNIT: µM
RESULT OPERATOR: >
READOUT NUMBER: 43.7
--
COMPOUND: O=C(C=Cc1ccccc1)NCCCNCCCCCCCCCCNCCCNC(=O)C=Cc1ccccc1.O=C(O)C(F)(F)F.O=C(O)C(F)(F)F [Compound 13e]
ENDPOINT UNIT: µM
RESULT OPERATOR: =
READOUT NUMBER: 37.6
--
COMPOUND: COc1c(Br)cc(/C=C/C(=O)NCCCNCCCCCCCNCCCNC(=O)/C=C/c2cc(Br)c(OC)c(Br)c2)cc1Br.O=C(O)C(F)(F)F.O=C(O)C(F)(F)F [Compound 16c]
ENDPOINT UNIT: µM
RESULT OPERATOR: =
READOUT NUMBER: 0.31
--
COMPOUND: COc1c(Br)cc(/C=C/C(=O)NCCCNCCCCNCCCNC(=O)/C=C/c2cc(Br)c(OC)c(Br)c2)cc1Br.O=C(O)C(F)(F)F.O=C(O)C(F)(F)F [Compound 16a]
ENDPOINT UNIT: µM
RESULT OPERATOR: ≤
READOUT NUMBER: 0.23
--
COMPOUND: COc1ccc(/C=C/C(=O)NCCCNCCCCCCCCCCNCCCNC(=O)/C=C/c2ccc(OC)c(Br)c2)cc1Br.O=C(O)C(F)(F)F.O=C(O)C(F)(F)F [Compound 15e]
ENDPOINT UNIT: µM
RESULT OPERATOR: =
READOUT NUMBER: 24.1
--
COMPOUND: COc1c(Br)cc(/C=C/C(=O)NCCCNCCCCCCCCCCCCNCCCNC(=O)/C=C/c2cc(Br)c(OC)c(Br)c2)cc1Br.O=C(O)C(F)(F)F.O=C(O)C(F)(F)F [Compound 16f]
ENDPOINT UNIT: µM
RESULT OPERATOR: =
READOUT NUMBER: 0.24
--
COMPOUND: COc1ccc(/C=C/C(=O)NCCCNCCCCCCCNCCCNC(=O)/C=C/c2ccc(OC)cc2)cc1.O=C(O)C(F)(F)F.O=C(O)C(F)(F)F [Compound 14c]
ENDPOINT UNIT: µM
RESULT OPERATOR: >
READOUT NUMBER: 40.4
--
COMPOUND: COc1ccc(/C=C/C(=O)NCCCNCCCCCCCCCCNCCCNC(=O)/C=C/c2ccc(OC)cc2)cc1.O=C(O)C(F)(F)F.O=C(O)C(F)(F)F [Compound 14e]
ENDPOINT UNIT: µM
RESULT OPERATOR: >
READOUT NUMBER: 38.3
--
COMPOUND: COc1ccc(/C=C/C(=O)NCCCNCCCCCCCCNCCCNC(=O)/C=C/c2ccc(OC)c(Br)c2)cc1Br.O=C(O)C(F)(F)F.O=C(O)C(F)(F)F [Compound 15d]
ENDPOINT UNIT: µM
RESULT OPERATOR: =
READOUT NUMBER: 0.52

----------
List of MIC tested on C. albicans ATCC 90028.

MOLECULE: COc1ccc(/C=C/C(=O)NCCCNCCCCNCCCNC(=O)/C=C/c2ccc(OC)c(Br)c2)cc1Br.O=C(O)C(F)(F)F.O=C(O)C(F)(F)F [Compound 15a]
ENDPOINT UNIT: µM
RESULT OPERATOR: =
MIC: 17.6

MOLECULE: COc1ccc(/C=C/C(=O)NCCCNCCCCCCCNCCCNC(=O)/C=C/c2ccc(OC)c(Br)c2)cc1Br.O=C(O)C(F)(F)F.O=C(O)C(F)(F)F [Compound 15c]
ENDPOINT UNIT: µM
RESULT OPERATOR: =
MIC: 8.4

MOLECULE: COc1ccc(/C=C/C(=O)NCCCNCCCCCCCCNCCCNC(=O)/C=C/c2ccc(OC)c(Br)c2)cc1Br.O=C(O)C(F)(F)F.O=C(O)C(F)(F)F [Compound 15d]
ENDPOINT UNIT: µM
RESULT OPERATOR: =
MIC: 33.2

MOLECULE: COc1c(Br)cc(/C=C/C(=O)NCCCNCCCCCCCCCCCCNCCCNC(=O)/C=C/c2cc(Br)c(OC)c(Br)c2)cc1Br.O=C(O)C(F)(F)F.O=C(O)C(F)(F)F [Compound 16f]
ENDPOINT UNIT: µM
RESULT OPERATOR: ≤
MIC: 0.21

MOLECULE: O=C(C=Cc1ccccc1)NCCCNCCCCCCNCCCNC(=O)C=Cc1ccccc1.O=C(O)C(F)(F)F.O=C(O)C(F)(F)F [Compound 13b]
ENDPOINT UNIT: µM
RESULT OPERATOR: >
MIC: 44.5

MOLECULE: O=C(C=Cc1ccccc1)NCCCNCCCCCCCCCCCCNCCCNC(=O)C=Cc1ccccc1.O=C(O)C(F)(F)F.O=C(O)C(F)(F)F [Compound 13f]
ENDPOINT UNIT: µM
RESULT OPERATOR: >
MIC: 39.9

MOLECULE: COc1ccc(/C=C/C(=O)NCCCNCCCCCCCCNCCCNC(=O)/C=C/c2ccc(OC)cc2)cc1.O=C(O)C(F)(F)F.O=C(O)C(F)(F)F [Compound 14d]
ENDPOINT UNIT: µM
RESULT OPERATOR: >
MIC: 39.7

MOLECULE: COc1c(Br)cc(/C=C/C(=O)NCCCNCCCCCCCCNCCCNC(=O)/C=C/c2cc(Br)c(OC)c(Br)c2)cc1Br.O=C(O)C(F)(F)F.O=C(O)C(F)(F)F [Compound 16d]
ENDPOINT UNIT: µM
RESULT OPERATOR: >
MIC: 28.5

MOLECULE: COc1c(Br)cc(/C=C/C(=O)NCCCNCCCCCCNCCCNC(=O)/C=C/c2cc(Br)c(OC)c(Br)c2)cc1Br.O=C(O)C(F)(F)F.O=C(O)C(F)(F)F [Compound 16b]
ENDPOINT UNIT: µM
RESULT OPERATOR: =
MIC: 29.2

----------
Test system: P. aeruginosa ATCC 27853
ASSAY EXPLANATION: Doxycycline enhancement against P. aeruginosa
Type: cell-based, Pseudomonas aeruginosa
EXPERIMENTAL SETUP: doxycycline fixed at 4.5 µM
READOUT: Dox/P. a: concentration required to restore doxycycline activity

COMPOUND: O=C(C=Cc1ccccc1)NCCCNCCCCNCCCNC(=O)C=Cc1ccccc1.O=C(O)C(F)(F)F.O=C(O)C(F)(F)F [Compound 13a]
TARGET OR SYSTEM: P. aeruginosa ATCC 27853
RESULT: 145 µM
//
COMPOUND: COc1c(Br)cc(/C=C/C(=O)NCCCNCCCCNCCCNC(=O)/C=C/c2cc(Br)c(OC)c(Br)c2)cc1Br.O=C(O)C(F)(F)F.O=C(O)C(F)(F)F [Compound 16a]
TARGET OR SYSTEM: P. aeruginosa ATCC 27853
RESULT: 5.86 µM
//
COMPOUND: COc1ccc(/C=C/C(=O)NCCCNCCCCCCCCNCCCNC(=O)/C=C/c2ccc(OC)c(Br)c2)cc1Br.O=C(O)C(F)(F)F.O=C(O)C(F)(F)F [Compound 15d]
TARGET OR SYSTEM: P. aeruginosa ATCC 27853
RESULT: 51.8 µM
//
COMPOUND: O=C(C=Cc1ccccc1)NCCCNCCCCCCCCCCNCCCNC(=O)C=Cc1ccccc1.O=C(O)C(F)(F)F.O=C(O)C(F)(F)F [Compound 13e]
TARGET OR SYSTEM: P. aeruginosa ATCC 27853
RESULT: 645 µM
//
COMPOUND: COc1c(Br)cc(/C=C/C(=O)NCCCNCCCCCCCCCCNCCCNC(=O)/C=C/c2cc(Br)c(OC)c(Br)c2)cc1Br.O=C(O)C(F)(F)F.O=C(O)C(F)(F)F [Compound 16e]
TARGET OR SYSTEM: P. aeruginosa ATCC 27853
RESULT: 43.5 µM
//
COMPOUND: O=C(C=Cc1ccccc1)NCCCNCCCCCCNCCCNC(=O)C=Cc1ccccc1.O=C(O)C(F)(F)F.O=C(O)C(F)(F)F [Compound 13b]
TARGET OR SYSTEM: P. aeruginosa ATCC 27853
RESULT: 3.125 µM
